System: NIH3T3
Assay: Cytotoxic Profiling of Annotated Libraries Using Quantitative High-Throughput Screening (AID 1296008); also: nearly all actives have a fitted effect of over 60% in size
Assay Setup: Five cell lines viability, CellTiter-Glo ATP luminescence, 48-72 h
Inconclusive results are not listed. The source made the active and inactive calls. Calls follow the shape of the dose curve; as a rule, active = well fitted inhibition curve with a large enough effect; inconclusive = small, poorly fitted or top-dose-only effect; inactive = flat fitted curve, though single readings scatter.
Choose the fitting class; nothing outside label 1 (active), label 0 (inactive) is accepted.

Some entries whose results are on file:
Compound: CC(C)NNC(=O)c1ccncc1
Class Name: label 0
--
Compound: CC(C)(Oc1ccc(CCNC(=O)c2ccc(Cl)cc2)cc1)C(=O)O
Class Name: label 0
--
Compound: CN(C)C/C=C(/c1ccc(Br)cc1)c1cccnc1
Class Name: label 0
--
Compound: OCCN1CCN(CCCN2c3ccccc3C=Cc3ccccc32)CC1
Class Name: label 0
--
Compound: O=C(O)CP(=O)(O)O
Class Name: label 0

For this compound, state the assay outcome: COC(=O)C1=C(C)NC(C)=C(C(=O)OCCN(C)Cc2ccccc2)C1c1cccc([N+](=O)[O-])c1 (stereo not drawn) label 1

What is the recorded call for this compound in the test? C[C@]12C=CC(=O)C=C1CC[C@H]1[C@@H]3C[C@@H](O)[C@](O)(C(=O)CO)[C@@]3(C)C[C@H](O)[C@@]12F label 0

// outcome(item) with item = CC(=O)Nc1nnc(S(N)(=O)=O)s1 label 0

Identify the outcome logged in this assay for the compound shown: CN(C)[C@@H]1C(=O)C(C(N)=O)=C(O)[C@@]2(O)C(=O)C3=C(O)c4c(O)ccc(Cl)c4[C@@H](O)[C@H]3C[C@@H]12 label 0

Would you mind telling me which call this test gave CC(=O)Oc1cc(C(C)C)c(OCCN(C)C)cc1C ? label 0

What call does the record list for C[n+]1cc2c3c(ccc2c2ccc4cc5c(cc4c21)OCO5)OCO3 ? label 1

# outcome recorded in this test, key = CC(=O)OCC1=C(C(=O)O)N2C(=O)[C@@H](NC(=O)Cc3cccs3)[C@H]2SC1 label 0

Could you please tell me the result logged for O=C(O)CCCCCCCC(=O)O in this assay? label 0
